- Assayed target: T1, human TGFβ2, mature receptor-binding domain (human, UniProt P09858 303-414 (pig entry), The mature TGFβ2 is a disulfide-linked homodimer of this 112-residue chain. The 4A11 epitope spans both monomers (p-1207).)
- T1 construct: Peprotech; also called TGFb2
- T1 sequence: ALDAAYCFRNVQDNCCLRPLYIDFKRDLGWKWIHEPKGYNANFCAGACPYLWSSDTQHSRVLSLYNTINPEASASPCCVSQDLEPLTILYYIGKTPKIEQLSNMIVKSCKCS
- Test details: SPR
Measurement kind: Kd (pM)
Numeric answer only, unit pM assumed.

**Q:** Return reported Kd; argument: 4A11 (antibody, V domains shown, anti-TGFβ2/3, recombinant rabbit monoclonal; some paragraphs print the H/L pair as 32/33; also called Rb1.4A11; Rbt 4A11) VH: QSLEESGGRLVTPGTPLTLTCTVSGFSLSSYTVNWVRQAPGKGLEWIGYISYGGSAYYASWANGRFTISKTSATVDLKITSPTTEDTATYFCARHMQVGGAPTGSMAAFDPWGPGTLVTVSS VL: AAVLTQTPSPVSAAVGGTVSISCQSSQSVYNNNYLSWFQQKPGQPPKLLIYGASTLTSGVPSRFKGSGSGTQFTLTISDVQCDDAATYYCAGGYSGSSDKYAFGGGTEVVVKG
**A:** 8
